Known EC50 of a selection of compounds
- System name: GPR120L receptor (Homo sapiens (Human), UniProt Q5NUL3)
- Sequence (Q5NUL3 other isoform, or with tags, fused parts or gaps): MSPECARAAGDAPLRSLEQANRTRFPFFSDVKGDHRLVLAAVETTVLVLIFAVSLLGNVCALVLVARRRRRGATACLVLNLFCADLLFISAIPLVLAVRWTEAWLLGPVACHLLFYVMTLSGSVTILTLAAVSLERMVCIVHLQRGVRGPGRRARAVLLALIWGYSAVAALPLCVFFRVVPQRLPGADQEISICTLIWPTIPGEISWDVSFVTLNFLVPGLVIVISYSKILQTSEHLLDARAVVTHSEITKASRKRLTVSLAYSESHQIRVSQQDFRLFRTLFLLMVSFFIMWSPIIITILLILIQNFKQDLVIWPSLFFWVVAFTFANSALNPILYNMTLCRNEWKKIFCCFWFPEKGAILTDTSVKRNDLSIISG
- Assay remarks: Beta (β) arrestin 2 Interaction Assay (BRET assay), β-galactosidase enzyme fragment complementation
- Experimental context: CHO-K1 cells stably expressing the GPR120L receptor; β-arrestin recruitment; 2 hours incubation
- Protocol: Beta (β) arrestin 2 Interaction Assay (BRET assay) was performed using CHO-K1 cells stably expressing the GPR120L receptor using β-galactosidase (Beta gal) enzyme fragment complementation assay. […] Extent of Arrestin recruitment was measured by adding detection reagents for Beta gal complementation assay and was further incubated for 1 hour. The chemi-luminescent signal was detected on Polar Star (BMG Labtech). The dose-response curve was analyzed using Sigma Plot/Graph Pad. […]

compound=O=C(O)CCCc1ccc(OCc2cc(F)ccc2-c2nc3c(s2)CCC3)cc1 system_name="GPR120L receptor (Homo sapiens (Human), UniProt Q5NUL3)" endpoint_value="10 to 500 nM"
compound=O=C(O)CCCc1ccc(OCc2cc(F)ccc2-c2ccc3c(c2)CCCC3=O)cc1 system_name="GPR120L receptor (Homo sapiens (Human), UniProt Q5NUL3)" endpoint_value="500 to 5000 nM"
compound=O=C(O)CCCc1ccc(OCc2cc(F)ccc2-c2cnc3c(c2)CCC3)cc1 system_name="GPR120L receptor (Homo sapiens (Human), UniProt Q5NUL3)" endpoint_value="10 to 500 nM"
compound=O=C(O)CCCc1ccc(OCc2cc(F)ccc2-c2ccc3c(c2)CCO3)cc1 system_name="GPR120L receptor (Homo sapiens (Human), UniProt Q5NUL3)" endpoint_value="10 to 500 nM"
compound=O=C(O)CCCc1ccc(OCc2cc(F)ccc2-c2nc(C3CC3)cs2)cc1 system_name="GPR120L receptor (Homo sapiens (Human), UniProt Q5NUL3)" endpoint_value="500 to 5000 nM"
compound="O=C(O)CCCc1ccc(OCc2cc(F)ccc2-c2nc3c(s2)COCC3)cc1 [Example 48]" system_name="GPR120L receptor (Homo sapiens (Human), UniProt Q5NUL3)" endpoint_value="500 to 5000 nM"
compound=N#CC1(c2ccc(-c3ccc(F)cc3COc3ccc(CCC(=O)O)cc3)s2)CC1 system_name="GPR120L receptor (Homo sapiens (Human), UniProt Q5NUL3)" endpoint_value="500 to 5000 nM"
compound=O=C(O)CCCc1ccc(OCc2cc(F)ccc2-c2nc3c(s2)CCCC3)cc1 system_name="GPR120L receptor (Homo sapiens (Human), UniProt Q5NUL3)" endpoint_value="10 to 500 nM"

Would you kindly look at the next entry?
Problem: Return value of EC50 for input `N#CC1(c2ccc(-c3ccc(F)cc3COc3ccc(CCC(=O)O)cc3)cc2)CC1` , no commentary.
Solution: 10 to 500 nM
